Listed molecules paired with reported melting point

molecule	melting point
CN(C)C(=O)c1ccc([N+](=O)[O-])cc1S(N)(=O)=O	159 to 160 °C
O=c1c(C2=Nc3ccccc3S(=O)(=O)N2)c(O)c2ccccc2n1CCCCO	238 to 240 °C
Cn1c(=O)n(-c2cc(Cl)ccc2O)c2ccc(F)cc21	247 to 250 °C
O=[N+]([O-])c1cc(CO)ccc1Sc1nccnc1Cl	110 to 113 °C
O=C(CCC1CCCCCCCCCCC1)C1=C(O)CSC1=O	60 to 62 °C
CC(C)(C)[Si](C)(C)O[C@@H]1CO[C@H](c2cccnc2)[C@@H]1CCC(=O)O	93 to 94 °C
O=S(CBr)c1ccc(Cl)cc1 (stereo unspecified)	100 °C
CCOC(=O)C1=C(C)NC(SCc2ccc(OC)cc2)=NC1c1cccc(C)c1 (stereo unspecified)	65 to 67 °C
COc1cccc2sc(NN)nc12	215 to 220 °C
COCC(O)COc1ccc2nc(S(N)(=O)=O)sc2c1 (stereo unspecified)	153 to 155 °C
CCN(CC)CCNc1ccc(NCCN(CC)CC)c2c1C(=O)c1ccccc1C2=O	109 °C
